B1: ATE1 (parent)
chain: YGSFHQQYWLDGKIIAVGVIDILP

# Variants of: B1
# Assay name: protein stability index of a GFP-peptide fusion (GPS, HEK-293T) (PSI 1-6); higher = more stable;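 note: lentivirally expressed fusions sorted by FACS into six bins by GFP to DsRed ratio, PSI derived from sequencing read proportions per bin multiplied by bin number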
# Settings: c terminus: a fixed tail appended
Kind request: treat 3 as inclusive, so protein stability index at 3 or higher is met, anything lower is not met.

| Sequence text | Assigned class |
| --- | --- |
| NGSFHQQYWLDGKIIAVGVIDILP [Y1N] | not met |
| YGSFHQQYWLDGKIIAVGEIDILP [V19E] | not met |
| YGSFHQQYWLDGKIIAVLVIDILP [G18L] | not met |
| YGSFHQQYWLDGKIIAVGVSDILP [I20S] | not met |
| YGSFHQQYWLDGTIIAVGVIDILP [K13T] | not met |
| YGSFHQQYWLDGKIIAVGVFDILP [I20F] | met |
| YGSFHQQYWLDGKIIAVQVIDILP [G18Q] | met |
| YGSFHQQYWLDGVIIAVGVIDILP [K13V] | not met |
| YGSFHQHYWLDGKIIAVGVIDILP [Q7H] | not met |
| YMSFHQQYWLDGKIIAVGVIDILP [G2M] | not met |
| MGSFHQQYWLDGKIIAVGVIDILP [Y1M] | not met |
| YGKFHQQYWLDGKIIAVGVIDILP [S3K] | not met |
| YGSFHQQYWLDGKIIAVGVYDILP [I20Y] | not met |
| YLSFHQQYWLDGKIIAVGVIDILP [G2L] | not met |
| YGSFHQQYWKDGKIIAVGVIDILP [L10K] | met |
| YGSFHQQYWLDGKIIAVGVIDILA [P24A] | not met |
| YGSVHQQYWLDGKIIAVGVIDILP [F4V] | not met |
| YGSFHTQYWLDGKIIAVGVIDILP [Q6T] | met |
| YGSFHQWYWLDGKIIAVGVIDILP [Q7W] | met |
| YGSYHQQYWLDGKIIAVGVIDILP [F4Y] | met |
